tested on: Group C Streptococcus (4 strains); assay: MIC range, broader panel of Quotient Bioresearch strains (Table 3); conditions: read-out: MIC Range Low, Group C Streptococcus (4 strains)
experimental_endpoint: MIC (µg/mL)
Please give a number only; it is taken to be in µg/mL.

Consider the reported MIC for these compounds:
Cc1c(-c2ccc(N)cc2)c(F)cn2c(=O)c(C(=O)[O-])cc(C3CC3)c12.[K+] [Example 5 K salt] : 0.06
Cc1c(-c2ccncc2)ccn2c(=O)c(C(=O)[O-])cc(C3CC3)c12.[K+] [Example 16 K salt] : 0.25
Cc1c(-c2ccc(N)c(F)c2)ccn2c(=O)c(C(=O)[O-])cc(C3CC3)c12.[K+] [Example 2 K salt] : 0.03

We next turn to a different compound, shown below.
Problem: Form field: reported MIC of Cc1c(-c2ccc(C(N)=O)cc2)c(F)cn2c(=O)c(C(=O)[O-])cc(C3CC3)c12.[K+] [Example 6 K salt]
Solution: 0.06

* * *

target: bacterial topoisomerase IV (Escherichia coli, UniProt P0AFI2+P20083); test: Inhibition of topoisomerases activity in vitro, Topogen protocol TG1007 (Table 7)
Sequence (P20083 whole entry): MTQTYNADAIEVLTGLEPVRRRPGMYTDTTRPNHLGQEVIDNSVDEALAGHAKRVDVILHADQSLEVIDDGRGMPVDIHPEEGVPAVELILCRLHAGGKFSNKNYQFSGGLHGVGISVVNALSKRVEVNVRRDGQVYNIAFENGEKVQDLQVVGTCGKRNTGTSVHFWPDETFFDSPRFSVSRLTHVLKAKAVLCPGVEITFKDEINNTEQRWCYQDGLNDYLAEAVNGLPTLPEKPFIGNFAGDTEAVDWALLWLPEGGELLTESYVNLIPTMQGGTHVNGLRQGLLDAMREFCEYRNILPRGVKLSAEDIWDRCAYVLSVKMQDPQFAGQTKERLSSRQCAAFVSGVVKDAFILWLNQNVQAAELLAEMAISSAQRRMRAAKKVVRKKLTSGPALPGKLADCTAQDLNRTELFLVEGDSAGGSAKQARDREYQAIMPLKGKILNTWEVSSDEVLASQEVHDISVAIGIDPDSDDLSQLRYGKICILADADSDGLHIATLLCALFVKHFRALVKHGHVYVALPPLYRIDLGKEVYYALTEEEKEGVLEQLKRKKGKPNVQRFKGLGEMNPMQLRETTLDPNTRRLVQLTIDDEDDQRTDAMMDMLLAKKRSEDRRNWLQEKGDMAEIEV
Sequence (P0AFI2 whole entry): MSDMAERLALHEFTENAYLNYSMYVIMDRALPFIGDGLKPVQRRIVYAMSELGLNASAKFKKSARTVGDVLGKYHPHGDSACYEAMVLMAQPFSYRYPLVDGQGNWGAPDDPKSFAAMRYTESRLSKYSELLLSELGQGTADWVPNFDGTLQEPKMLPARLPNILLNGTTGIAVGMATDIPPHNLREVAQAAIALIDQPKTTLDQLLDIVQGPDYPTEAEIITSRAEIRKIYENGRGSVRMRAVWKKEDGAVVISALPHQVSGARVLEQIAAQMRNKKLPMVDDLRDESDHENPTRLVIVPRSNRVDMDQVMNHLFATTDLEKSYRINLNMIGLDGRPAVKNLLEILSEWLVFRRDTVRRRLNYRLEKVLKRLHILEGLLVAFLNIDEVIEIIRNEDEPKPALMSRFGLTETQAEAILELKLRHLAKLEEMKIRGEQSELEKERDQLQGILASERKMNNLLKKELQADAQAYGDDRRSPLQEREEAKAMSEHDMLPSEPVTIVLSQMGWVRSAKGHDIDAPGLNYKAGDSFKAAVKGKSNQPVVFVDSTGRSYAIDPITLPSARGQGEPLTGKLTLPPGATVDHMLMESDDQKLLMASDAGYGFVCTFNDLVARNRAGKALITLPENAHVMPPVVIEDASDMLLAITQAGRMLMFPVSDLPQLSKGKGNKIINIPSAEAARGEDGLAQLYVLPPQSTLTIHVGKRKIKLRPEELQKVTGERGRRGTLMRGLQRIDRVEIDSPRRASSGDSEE
experimental_endpoint: IC50 (µM)
Please state the figure in µM; there is no need to write the unit.

Cc1c(-c2ccc(N)c(F)c2)ccn2c(=O)c(C(=O)[O-])cc(C3CC3)c12.[K+] [Example 2 K salt] : 4.43

Problem: I am curious: what IC50 value has been reported for Cc1c(-c2ccc3[nH]ncc3c2)ccn2c(=O)c(C(=O)[O-])cc(C3CC3)c12.[K+] [Example 23 K salt] ?
Solution: 4.34

* * *

Overview of reported MIC across a group of molecules:
system: Escherichia coli (6 strains); assay: MIC range, broader panel of Quotient Bioresearch strains (Table 4); type: cell-based; details: read-out: MIC Range Low, Escherichia coli (6 strains)
Numeric only. Scale: µg/mL

# count of solved cases: 2
Cc1c(-c2ccc(N)cc2)c(F)cn2c(=O)c(C(=O)[O-])cc(C3CC3)c12.[K+] [Example 5 K salt] : 0.03
Cc1c(-c2cc(F)c(N)cc2F)ccn2c(=O)c(C(=O)[O-])cc(C3CC3)c12.[K+] [Example 28 K salt] : 0.03

Next:
Problem: Recall the recorded MIC for Cc1c(-c2ccncc2)ccn2c(=O)c(C(=O)[O-])cc(C3CC3)c12.[K+] [Example 16 K salt] with Escherichia coli (6 strains) and state it.
Solution: 0.03

* * *

tested on: Group C Streptococcus (4 strains); assay: MIC range, broader panel of Quotient Bioresearch strains (Table 3); conditions: read-out: MIC Range Low, Group C Streptococcus (4 strains)
Reported MIC values follow for various molecules
Return type: number; implicit unit µg/mL.

Problem: So what does the record say about MIC for `Cc1c(C2=CCNCC2)ccn2c(=O)c(C(=O)O)cc(C3CC3)c12` ?
Solution: 2

* * *

assay: Metabolic stability in liver microsomes +/- S9 fraction (Table 8); type: in vitro ADME; conditions: Liver microsomes + S9, human, 1 μM; further: time not given here
Below is a list of entries, each paired with its recorded Mean Parent Remaining value.
State the result as a value with its unit after it.

In the examples that follow, each entry is paired with its recorded Mean Parent Remaining.
Cc1c(-c2ccc3[nH]ncc3c2)ccn2c(=O)c(C(=O)[O-])cc(C3CC3)c12.[K+] [Example 23 K salt] : 80%
Cc1c(-c2cc(F)c(N)cc2F)ccn2c(=O)c(C(=O)[O-])cc(C3CC3)c12.[K+] [Example 28 K salt] : 93%
Cc1c(-c2ccc(N)c(F)c2)ccn2c(=O)c(C(=O)[O-])cc(C3CC3)c12.[K+] [Example 2 K salt] : 95%

Problem: Given the molecule Cc1c(-c2ccc(O)cc2)ccn2c(=O)c(C(=O)[O-])cc(C3CC3)c12.[K+] [Example 46 K salt] , what is its reported Mean Parent Remaining?
Solution: 97%

Problem: For the molecule Cc1c(-c2ccc(N)nc2)ccn2c(=O)c(C(=O)[O-])cc(C3CC3)c12.[K+] [Example 21 K salt] , what Mean Parent Remaining is on record?
Solution: 93%
